- Test system: IFN-γ
- test: In vivo peptide micro-library screening, IFN-γ ELISA of re-stimulated splenocytes relative to A5
- Parameters: species or system mice
- condition.parameters: rank among 100 micro-library peptides; IFN-γ on re-stimulation relative to A5; 5 peptides plus A5 with CPQ
observation.type: Experimental rank
Write no unit; give the number alone.

# example entries with known answers
H6-TPPSIFSTQ-ERR (HHHHHHTPPSIFSTQERR; CT49) | 73
H6-GPPGGFQEF-ERR [CT4] (HHHHHHGPPGGFQEFERR; CT4) | 63
H6-GRPSIDNVL-ERR (HHHHHHGRPSIDNVLERR; CT51) | 37

Entry under review: H6-CYVTYKGEI-ERR (HHHHHHCYVTYKGEIERR; CT9) . Reported Experimental rank? 89

# repeat for H6-IYLESVAIM-ERR (HHHHHHIYLESVAIMERR; CT78) 50

# repeat for H6-DPFATPLSM-ERR (HHHHHHDPFATPLSMERR; CT21) 83

# repeat for H6-EPQIAMDDM-ERR (HHHHHHEPQIAMDDMERR; CT22) 74

# repeat for H6-TGRRRTATK-ERR (HHHHHHTGRRRTATKERR; CT59) 30

# repeat for H6-RPIKGPRNI-ERR (HHHHHHRPIKGPRNIERR; CT18) 47

# repeat for H6-TYLQPAQAQ-ERR (HHHHHHTYLQPAQAQERR; CT75) 12

# repeat for H6-VVEANWTML-ERR (HHHHHHVVEANWTMLERR; CT96) 2

====

- System: IFN-γ
- test: In vivo peptide micro-library screening, IFN-γ ELISA of re-stimulated splenocytes relative to A5
- Set-up: species or system mice
- condition.parameters: rank among 100 micro-library peptides; IFN-γ on re-stimulation relative to A5; 5 peptides plus A5 with CPQ
observation.type: Experimental rank
Write no unit; give the number alone.

# example entries with known answers
H6-SEGNSSHTI-ERR (HHHHHHSEGNSSHTIERR; CT81) [CT80] | 31
H6-KPYESYTEQ-ERR (HHHHHHKPYESYTEQERR; CT87) | 75
H6-YYMRDVIAI-ERR (HHHHHHYYMRDVIAIERR; CT33) | 96
H6-FPPQNMFEF-ERR [CT43] (HHHHHHFPPQNMFEFERR; CT43) | 15

Let's switch to this substance now.
Entry under review: H6-GYEAVVRLL-ERR (HHHHHHGYEAVVRLLERR; CT23) . Reported Experimental rank? 77

====

- System: IFN-γ
- test: In vivo peptide micro-library screening, IFN-γ ELISA of re-stimulated splenocytes relative to A5
- Parameters: species or system mice
- condition.parameters: rank among 100 micro-library peptides; IFN-γ on re-stimulation relative to A5; 5 peptides plus A5 with CPQ
observation.type: Experimental rank
Write no unit; give the number alone.

# example entries with known answers
H6-LFLKSPTAL-ERR (HHHHHHLFLKSPTALERR; CT34) | 99
H6-CQIAMVHYI-ERR (HHHHHHCQIAMVHYIERR; CT61) | 10
H6-KYYAVNFSM-ERR [CT8] (HHHHHHKYYAVNFSMERR; CT8) | 88
H6-SSKHRRSFV-ERR (HHHHHHSSKHRRSFVERR; CT38*) | 45
H6-RKIKGPYWL-ERR (HHHHHHRKIKGPYWLERR; CT91) | 52
H6-VYFVAGVRV-ERR (HHHHHHVYFVAGVRVERR; H6 and ERR flanks; CT71) | 3

Let's switch to this substance now.
Entry under review: H6-IPDEAMVKL-ERR (HHHHHHIPDEAMVKLERR; CT16) . Reported Experimental rank? 33
